pIC50: −log10 of the molar value.
Header: pIC50 / Fibroblast growth factor receptor 4 (Homo sapiens, UniProt P22455) / multiple publications

Here are 2 molecules together with their reported answers.
MOLECULE	pIC50
C=CC(=O)Nc1cc(N2CCC(N3CCS(=O)(=O)CC3)CC2)ccc1Nc1ncc(C#N)c(Nc2ccccc2OC(C)C)n1	7.30 to 8.00
C=CC(=O)Nc1ccccc1-c1ncc2cc(-c3c(Cl)c(OC)cc(OC)c3Cl)c(=O)n(C3CCCC3)c2n1	7.00 to 8.00

Given the entry C=CC(=O)NC1CN(C(C)=O)CC1Nc1ncc2cc(-c3c(Cl)c(OC)cc(OC)c3Cl)ccc2n1 (stereo not shown) , what pIC50 was observed with Fibroblast growth factor receptor 4 (Homo sapiens, UniProt P22455)?
> 8.00

`C=CC(=O)Nc1cc(N2CCN(C(C)C)CC2)ccc1Nc1ncc(C#N)c(Nc2ccccc2OC(C)C)n1` , same question.
≥ 8.00

`C=CC(=O)N[C@@H]1CC(C)(C)OC[C@@H]1Nc1ncc2cc(-c3c(Cl)c(OC)cc(OC)c3Cl)ccc2n1` , same question.
6.00 to 7.00

`C=CC(=O)Nc1cc(N2CCC(N3CCN(C)CC3=O)CC2)ccc1Nc1ncc(C#N)c(Nc2ccccc2OC(C)C)n1` , same question.
7.30 to 8.00

`C=CC(=O)Nc1cc(N2CCC(N3CCN(CCOC)CC3)CC2)ccc1Nc1ncc(C#N)c(Nc2ccccc2OC(C)C)n1` , same question.
7.30 to 8.00
